Cited source: ChEMBL document CHEMBL5032530

experiment: AUC (0 to t) in ICR mouse at 30 mg/kg, po measured upto 48 hrs; type: ADME, organism-based; parameters: route oral, dose 30 mg/kg, time <=48; details: in vivo
Recorded Endpoint: AUC(0-t) at 48 h (ng·h/mL)

A. Cc1c(F)cccc1NC(=O)Nc1ccc2c(c1O)S(=O)(=O)CCC2
B. NS(=O)(=O)c1c(Cl)ccc(NC(=O)Nc2cccc(Cl)c2Cl)c1O
C. Cc1c(F)cccc1NC(=O)Nc1ccc2c(c1O)S(=O)(=O)CC=C2
### Prompt Put the items in sequence by AUC(0-t) at 48 h, from largest down. Please reply with the labels ordered as requested. Many thanks.
### Response B, C, A
(B: 11100 ng·h/mL, C: 3510 ng·h/mL, A: 218 ng·h/mL)
